Source of measurements: paper PMC5295379

measurement_target: MET (Homo sapiens)
Sequence (P08581 25-307): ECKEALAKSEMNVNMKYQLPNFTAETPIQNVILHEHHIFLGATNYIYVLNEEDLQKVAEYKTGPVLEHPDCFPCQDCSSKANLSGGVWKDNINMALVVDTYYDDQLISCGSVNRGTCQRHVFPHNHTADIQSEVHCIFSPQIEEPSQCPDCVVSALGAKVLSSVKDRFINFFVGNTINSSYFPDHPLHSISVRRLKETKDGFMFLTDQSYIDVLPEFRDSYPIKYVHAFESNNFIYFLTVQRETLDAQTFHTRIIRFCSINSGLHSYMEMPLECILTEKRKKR
Sequence (P08581 308-1390): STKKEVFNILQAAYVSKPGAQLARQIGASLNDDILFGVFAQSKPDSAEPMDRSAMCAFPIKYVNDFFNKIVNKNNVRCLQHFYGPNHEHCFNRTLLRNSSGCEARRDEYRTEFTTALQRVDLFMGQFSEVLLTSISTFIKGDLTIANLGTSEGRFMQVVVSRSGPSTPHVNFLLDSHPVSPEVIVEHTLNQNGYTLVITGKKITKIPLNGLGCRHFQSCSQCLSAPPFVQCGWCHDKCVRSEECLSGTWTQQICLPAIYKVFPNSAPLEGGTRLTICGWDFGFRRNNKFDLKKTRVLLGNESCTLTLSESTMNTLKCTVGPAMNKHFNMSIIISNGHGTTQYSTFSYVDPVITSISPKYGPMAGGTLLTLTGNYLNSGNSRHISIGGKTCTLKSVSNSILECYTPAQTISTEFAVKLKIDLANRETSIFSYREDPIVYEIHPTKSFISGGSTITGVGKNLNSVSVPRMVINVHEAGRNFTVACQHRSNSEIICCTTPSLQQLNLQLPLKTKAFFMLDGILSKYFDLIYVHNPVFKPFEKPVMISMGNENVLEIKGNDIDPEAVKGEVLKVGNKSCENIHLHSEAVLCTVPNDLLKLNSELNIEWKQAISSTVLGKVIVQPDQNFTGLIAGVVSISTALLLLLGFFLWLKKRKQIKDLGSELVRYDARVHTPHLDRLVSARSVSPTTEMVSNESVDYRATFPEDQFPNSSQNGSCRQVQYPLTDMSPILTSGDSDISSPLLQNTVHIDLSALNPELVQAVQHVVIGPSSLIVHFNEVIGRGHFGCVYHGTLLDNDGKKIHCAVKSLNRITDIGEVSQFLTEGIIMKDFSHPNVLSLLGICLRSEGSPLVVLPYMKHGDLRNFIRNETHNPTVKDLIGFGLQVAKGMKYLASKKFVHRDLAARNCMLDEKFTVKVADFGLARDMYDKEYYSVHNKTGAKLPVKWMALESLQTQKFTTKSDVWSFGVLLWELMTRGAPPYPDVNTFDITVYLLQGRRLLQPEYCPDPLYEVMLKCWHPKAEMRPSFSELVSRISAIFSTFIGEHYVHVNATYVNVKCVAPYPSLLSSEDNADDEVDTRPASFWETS
protocol_notes: pMET (Y1234/[…]) immunoblot densitometry in MET-amplified H1993 and EBC-1 cells, […] h dose response
reported_endpoint: IC50 (nM)
Unit nM implied. Number only.

Task: Entry C[C@@H](c1ccc2nccn2c1)n1nnc2ncc(-c3cnn(C)c3)nc21 [savolitinib] : reported IC50 = ?
Output: 4.12
